# System: SW-620 colon
# test-description: NCI tumour cell line growth inhibition, 48 h
readout-type: TGI

State its TGI for this compound: COc1ccc(C2ON(c3ccccc3)CC=C2C)cc1 (stereo not drawn) > 100 µM

State its TGI for this compound: OCC(O)CNc1ncnc2ccccc12 (stereo not drawn) > 100 µM

State its TGI for this compound: `O=C(O)c1cc(=O)cc(C(=O)O)o1` > 100 µM

====

# Test system: CAKI-1 renal
# test-description: NCI tumour cell line growth inhibition, 48 h
Listed here: items and their measured TGI.

{"columns": ["compound", "TGI"],
 "data": [
  ["CC(C)(C)c1cc(CCCCCCCC2(CCCCCCCc3cc(C(C)(C)C)cc(C(C)(C)C)c3)OC(COCCOCCCCCC#N)C(COCCOCCCCCC#N)O2)cc(C(C)(C)C)c1 (stereo unspecified)", "> 100 µM"],
  ["CCCCCCCCCCCCCCCCCCNc1ccn(C2OC(CO)C(OP(=O)(O)OCC(O)COP(=O)(O)OCC3OC(n4cc(F)c(NCCCCCCCCCCCCCCCCCC)nc4=O)CC3O)C2O)c(=O)n1 (stereo unspecified)", "> 50 µM"],
  ["COc1ccc(-c2nc3c(nc2-c2ccc(OC)cc2)C(N)=NS(=O)(=O)N3)cc1", "> 100 µM"],
  ["CCC1C(C(=O)Nc2ccccc2C)=C(C)NC(C)=C1c1ccccc1C (stereo unspecified)", "> 100 µM"],
  ["CSc1nc(CO)c(CO)n1C", "> 100 µM"]
]}

State its TGI for this compound: COc1ccc(C2CC(c3ccc(Nc4ccnc5cc(Cl)ccc45)cc3)=NN2C=O)cc1 (stereo unspecified) > 100 µM
